Data provenance is patent US11001570B2.

- TARGET ENTITY: BCL6::BCOR (Homo sapiens, UniProt P41182, C67R/C84N/C8Q)
- Construct: BCL6 (amino acids 5 to 129, with the following changes to the natural protein)
- METHOD DESCRIPTION: BCL6::BCOR ULight TR-FRET assay
ASSAY READOUT: IC50 (nM)

1 = CNC(=O)COc1cc2cc(Nc3nc(N4C[C@H](F)C[C@H](F)C4)ncc3Cl)ccc2n(C)c1=O [Compound I-65]
2 = CNC(=O)COc1cc2cc(Nc3nc(N4CCC[C@@H](C(=O)N(C)C5CCN(C)CC5)C4)ncc3Cl)ccc2n(C)c1=O [Compound I-170]
3 = CNC(=O)COc1cc2cc(Nc3nc(N4CCC(C(=O)N(C)C)CC4)ncc3Cl)ccc2n(C)c1=O [Compound I-157]
4 = C[C@@H]1C[C@H](C)CN(c2ncc(Cl)c(Nc3ccc4c(c3)cc(OC[S+](C)[O-])c(=O)n4C)n2)C1 (single isomer, unassigned) [Compound I-174]
5 = CNC(=O)COc1cc2cc(Nc3nc(N4CCC(C(=O)O)CC4)ncc3Cl)cc(OC)c2n(C)c1=O [Compound I-94]
input: Using the recorded IC50, list the entries above from smallest to largest. In your reply, arrange the labels in the requested order.
output: 5, 3, 2, 4, 1
(5: 2 nM, 3: 5 nM, 2: 8 nM, 4: 16 nM, 1: 23 nM)

1 = Cn1c(=O)c(OCC(=O)O)cc2cc(Nc3nc(N4CCC(C(=O)O)CC4)ncc3Cl)ccc21 [Compound I-102]
2 = CNC(=O)COc1cc2cc(Nc3nc(N4CCCC(F)(F)C4)ncc3Cl)ccc2n(C)c1=O [Compound I-29]
3 = Cn1c(=O)c(OCC(=O)O)cc2cc(Nc3nc(N4CCC(c5ccccc5)CC4)ncc3Cl)ccc21 [Compound I-109]
input: Would you mind ranking these molecules by ascending IC50? In your reply, arrange the labels in the requested order.
output: 1, 2, 3
(1: 7 nM, 2: 10 nM, 3: 21 nM)

A = CNC(=O)COc1cc2cc(Nc3nc(N4CCC(C(=O)O)CC4)ncc3Cl)ccc2n(C(C)C)c1=O [Compound I-82]
B = CNC(=O)COc1cc2cc(Nc3nc(N4CCN(c5ccccn5)CC4)ncc3Cl)ccc2n(C)c1=O [Compound I-15]
input: Which value of IC50 is smaller, the one for A or the one for B ? Label of pick, please.
output: A

a = CNC(=O)COc1cc2cc(Nc3nc(N4CCC(C(=O)N(C)C)CC4)ncc3F)ccc2n(C)c1=O [Compound I-28]
b = CNC(=O)COc1cc2cc(Nc3nc(N4CCO[C@@H](C)C4)ncc3Cl)ccc2n(C)c1=O [Compound I-51]
input: Which value of IC50 is numerically greater: that of a or that of b ? Label of pick, please.
output: a

1 = CCCn1c(=O)c(OCC(=O)NC)cc2cc(Nc3nc(N4CCC(F)CC4)ncc3Cl)ccc21 [Compound I-80]
2 = C[C@@H]1C[C@H](C)CN(c2ncc(Cl)c(Nc3ccc4c(c3)cc(OCC(=O)NCCN(C)C)c(=O)n4C)n2)C1 [Compound I-138]
input: Which value of IC50 is smaller, the one for 1 or the one for 2 ? Label of pick, please.
output: 1

* * *

- TARGET ENTITY: BCL6::BCOR (Homo sapiens, UniProt P41182, C67R/C84N/C8Q)
- Construct: BCL6 (amino acids 5 to 129, with the following changes to the natural protein)
- METHOD DESCRIPTION: BCL6::BCOR ULight TR-FRET assay
ASSAY READOUT: IC50 (nM)

CC1CN(c2ncc(Cl)c(Nc3ccc4c(c3)cc(OCC(=O)O)c(=O)n4C)n2)CCS1 (stereo not shown) ... 9
CNC(=O)COc1cc2cc(Nc3nc(N4CCC(C(=O)NCCOCCN)CC4)ncc3Cl)ccc2n(C)c1=O ... 22

1 = CNC(=O)COc1cc2cc(Nc3nc(N4CCN(C)C(C)(C)C4)ncc3Cl)ccc2n(C)c1=O
2 = CNC(=O)COc1cc2cc(Nc3nc(N4CCC[C@@H](C(=O)O)C4)ncc3Cl)ccc2n(C)c1=O
input: Which value of IC50 is numerically greater: that of 1 or that of 2 ? Label of pick, please.
output: 1
(1: 11 nM, 2: 4 nM)
